Here, each record is paired with measured IC50 (ug/ml) HSV data.
- Test system: HSV-1
- protocol_description: HSV Antiviral (ELISA) assay
- Format: cell-based
- condition_set: HSV-1 in Vero cells
assay_endpoint: IC50 (ug/ml) HSV

molecule | result_value
O=C(Nc1ccc(NC(=S)NCCc2cc(F)cc(C(F)(F)F)c2)cc1)c1csnn1 [Example 762] | >10 µg/mL
O=C(Nc1ccc(NC(=S)Nc2cc(C(F)(F)F)cc(C(F)(F)F)c2)cc1)c1cocn1 [Example 715] | >10 µg/mL
COc1cc(OC)c(NC(=S)Nc2ccc(NC(=O)c3cccn3C)cc2)cc1Cl [Example 147] | 10 µg/mL
Nc1ccc(CCNC(=S)Nc2ccc(NC(=O)c3ccco3)cc2)cc1 [Example 603] | >10 µg/mL
CC(Cc1ccccc1)NC(=S)Nc1ccc(NC(=O)c2csnn2)cc1 (stereo not drawn) [Example 723] | >10 µg/mL
O=C(Nc1ccc(NC(=S)NCCCCc2ccccc2)cc1)c1csnn1 [Example 648] | >10 µg/mL
O=C(Nc1ccc(NC(=S)NCCOc2ccc(I)cc2)cc1)c1ccco1 [Example 698] | 6 µg/mL
O=C(Nc1ccc(NC(=S)Nc2ccc(F)c(C(F)(F)F)c2)cc1)c1csnn1 [Example 600] | >10 µg/mL
O=C(Nc1ccc(CNC(=S)Nc2ccc(Cl)c(Cl)c2)cc1)c1csnn1 [Example 630] | >10 µg/mL
O=C(Nc1ccc(NC(=S)NCCc2ccc(Br)cc2)cc1)c1csnn1 [Example 606] | >10 µg/mL
O=C(Nc1ccc(NC(=S)Nc2cc(Cl)cc(Cl)c2)cc1)c1cocn1 [Example 702] | 4 µg/mL
CN(C)CC(=O)Nc1ccc(NC(=S)Nc2ccc(NC(=O)c3ccco3)cc2)cc1Cl [Example 361] | 8 µg/mL
O=C(Nc1ccc(NC(=S)NCCOc2ccc(Cl)c(Cl)c2)cc1)c1csnn1 [Example 703] | >10 µg/mL
Cc1ccc(CCNC(=S)Nc2ccc(NC(=O)c3csnn3)cc2)cc1 [Example 638] | >10 µg/mL
COc1cc(OC)c(NC(=S)Nc2ccc(NC(=O)c3cnns3)cc2)cc1Cl [Example 323] | 3 µg/mL
O=C(Nc1ccc(NC(=S)NCc2ccc(N3CCCCC3)c(C(F)(F)F)c2)cc1)c1csnn1 [Example 601] | >10 µg/mL
O=C(Nc1ccc(NC(=S)NCCOc2ccc(I)cc2)cc1)c1csnn1 [Example 694] | 10 µg/mL
O=C(Nc1ccc(NC(=S)NCc2ccc3c(c2)OCO3)cc1)c1ccco1 [Example 546] | 1.7 µg/mL

----------
- Test system: HSV-1
- protocol_description: HSV Antiviral (ELISA) assay
- Assay type: cell-based
- condition_set: HSV-1 in Vero cells

compound | IC50 (ug/ml) HSV
CC(NC(=S)Nc1ccc(NC(=O)c2ccncc2)cc1)c1ccc(F)cc1 (centres unmarked) [Example 759] | >10 µg/mL
O=C(Nc1ccc(NC(=S)Nc2cc(C(F)(F)F)cc(C(F)(F)F)c2)cc1)c1ccco1 [Example 516] | >10 µg/mL
O=C(Nc1ccc(NC(=S)NCc2ccc(F)c(F)c2)cc1)c1ccco1 [Example 675] | >10 µg/mL
O=C(Nc1ccc(NC(=S)NCCc2cccc(Br)c2)cc1)c1csnn1 [Example 770] | >10 µg/mL
CN(C)c1ccc(Cl)cc1NC(=S)Nc1ccc(NC(=O)c2ccco2)cc1 [Example 489] | 5 µg/mL
CC(C)CN(C)c1cc(NC(=S)Nc2ccc(NC(=O)c3csnn3)cc2)cc(C(F)(F)F)c1 [Example 594] | >10 µg/mL
O=C(CN1CCCCC1)Nc1ccc(NC(=S)Nc2ccc(NC(=O)c3csnn3)cc2)cc1Cl [Example 391] | 8 µg/mL
CS(=O)(=O)Nc1ccc(NC(=S)Nc2ccc(NC(=O)c3ccco3)cc2)cc1Cl [Example 371] | >10 µg/mL

----------
Here, each record is paired with measured IC50 (ug/ml) VZV data.
- System: VZV strain Ellen
- protocol_description: VZV Antiviral (ELISA) assay
- Format: cell-based
- condition_set: VZV strain Ellen in HFF cells
- Experimental: For the generation of stock VZV to be used in the assay, VZV strain Ellen (ATCC #VR-1367) is used to infect human foreskin fibroblast (HFF) cells at low multiplicity (less than 0.1) and incubated overnight at 37° C. in 5% CO2. […] Antiviral activity (IC50) of the test compound is determined by comparing the flourescence obtained in absence of compound to that obtained in the presence of compound.
assay_endpoint: IC50 (ug/ml) VZV

molecule | assay_endpoint | result_value
Cc1cccc(NC(=S)Nc2ccc(NC(=O)c3csnn3)cc2)c1 [Example 456] | IC50 (ug/ml) VZV | >10 µg/mL
CC(NC(=S)Nc1ccc(NC(=O)c2cscn2)cc1)c1ccc(F)cc1C(F)(F)F (centres unmarked) [Example 852] | IC50 (ug/ml) VZV | >7.5 µg/mL
Cc1ccc(C(C)NC(=S)Nc2ccc(NC(=O)c3cscn3)cc2)c(C)c1 (centres unmarked) [Example 834] | IC50 (ug/ml) VZV | >7.5 µg/mL
COc1c(Cl)cc(NC(=S)Nc2ccc(NC(=O)c3csnn3)cc2)cc1Cl [Example 201] | IC50 (ug/ml) VZV | 8 µg/mL
O=C(Nc1ccc(NC(=S)Nc2ccc(NC(=O)c3ccco3)cc2)cc1Cl)OCCN1CCCCC1 [Example 439] | IC50 (ug/ml) VZV | >10 µg/mL
CC(O)c1cccc(NC(=S)Nc2ccc(NC(=O)c3csnn3)cc2)c1 (centres unmarked) [Example 464] | IC50 (ug/ml) VZV | >10 µg/mL
C[C@H](NC(=S)Nc1ccc(NC(=O)c2cscn2)nc1)c1cc(C(F)(F)F)cc(C(F)(F)F)c1 [Example 91] | IC50 (ug/ml) VZV | >10 µg/mL
O=C(Nc1ccc(NC(=S)Nc2cccc(I)c2)cc1)c1csnn1 [Example 508] | IC50 (ug/ml) VZV | >10 µg/mL

----------
- System: VZV strain Ellen
- protocol_description: VZV Antiviral (ELISA) assay
- Assay type: cell-based
- condition_set: VZV strain Ellen in HFF cells
Here, each record is paired with measured IC50 (ug/ml) VZV data.

molecule | IC50 (ug/ml) VZV
COc1cc(OC)c(NC(=S)Nc2ccc(NC(=O)c3nccc4ccccc34)cc2)cc1Cl | >15 µg/mL
CS(=O)(=O)Nc1ccc(NC(=S)Nc2ccc(NC(=O)c3ccco3)cc2)cc1Cl | >10 µg/mL
O=C(Nc1ccc(NC(=S)NCc2ccccc2)cc1)c1csnn1 | >10 µg/mL
O=C(Nc1ccc(NC(=S)Nc2cc(N3CCCCC3)cc(C(F)(F)F)c2)cc1)c1csnn1 | >10 µg/mL
O=C(Nc1ccc(NC(=S)NCc2ccc3c(c2)OCO3)cc1)c1ccco1 | 7 µg/mL
CC(NC(=S)Nc1ccc(NC(=O)c2cscn2)cc1)c1ccc(F)c(F)c1 (centres unmarked) | 0.14 µg/mL
CC(=O)Nc1cccc(NC(=S)Nc2ccc(NC(=O)c3csnn3)cc2)c1 | >10 µg/mL
CC(NC(=S)Nc1ccc(NC(=O)c2cscn2)cc1)c1ccccc1C(F)(F)F (centres unmarked) | >7.5 µg/mL
O=C(Nc1ccc(NC(=S)Nc2cccc(O)c2)cc1)c1ccco1 | >10 µg/mL
O=C(Nc1ccc(NC(=S)NCc2cc(F)cc(C(F)(F)F)c2)cc1)c1csnn1 | >10 µg/mL
COc1cc(OC)c(NC(=S)Nc2ccc(NC(=O)c3nnsc3-c3ccoc3)cc2)cc1Cl | >10 µg/mL
CC(N=[N+]=[N-])c1ccc(NC(=S)Nc2ccc(NC(=O)c3ccco3)cc2)cc1Cl (centres unmarked) | >10 µg/mL
COc1cc(OC)c(NC(=S)Nc2ccc(NC(=O)c3c[nH]nn3)cc2)cc1Cl | >10 µg/mL
O=C(Nc1ccc(NC(=S)NCCc2cc(C(F)(F)F)cc(C(F)(F)F)c2)cc1)c1csnn1 | >10 µg/mL
C[C@@H](NC(=S)Nc1ccc(NC(=O)c2csnn2)cc1)c1ccc(Br)cc1 | >7.5 µg/mL
C[C@H](NC(=S)Nc1ccc(NC(=O)c2csnn2)cc1)c1ccc(Br)cc1 | 0.27 µg/mL
CSc1ccc(NC(=S)Nc2ccc(NC(=O)c3ccccn3)cc2)cc1Cl | 3.5 µg/mL

----------
Here, each record is paired with measured IC50 (ug/ml) HSV data.
- System: HSV-1
- protocol_description: HSV Antiviral (ELISA) assay
- Assay type: cell-based
- condition_set: HSV-1 in Vero cells

compound | IC50 (ug/ml) HSV
COc1cc(OC)c(NC(=S)Nc2ccc(NC(=O)c3nnsc3C)cc2)cc1Cl | >10 µg/mL
CC(=O)Nc1cccc(NC(=S)Nc2ccc(NC(=O)c3csnn3)cc2)c1 | >10 µg/mL
O=C(Nc1ccc(NC(=S)NCc2ccc(Cl)cc2)cc1)c1csnn1 | >10 µg/mL
CN1CCC(N(C)c2ccc(NC(=S)Nc3ccc(NC(=O)c4ccccn4)cc3)cc2Cl)C1 (stereo not drawn) | 0.8 µg/mL
CC(=O)Nc1ccc(NC(=S)Nc2ccc(NC(=O)c3ccco3)cc2)cc1Cl | >10 µg/mL
CC(=O)Nc1cccc(NC(=S)Nc2ccc(NC(=O)c3ccco3)cc2)c1 | >10 µg/mL
N#Cc1cccc(NC(=S)Nc2ccc(NC(=O)c3ccco3)cc2)c1 | >10 µg/mL
O=C(Nc1ccc(NC(=S)NCCSc2ccccc2)cc1)c1csnn1 | >10 µg/mL
O=C(Nc1ccc(NC(=S)Nc2ccc(OC(F)(F)F)c(Br)c2)cc1)c1csnn1 | >10 µg/mL
O=C(Nc1ccc(NC(=S)NCCc2ccc(Br)cc2)cc1)c1ccco1 | >10 µg/mL
Nc1ccc(Cl)cc1NC(=S)Nc1ccc(NC(=O)c2ccco2)cc1 | 1 µg/mL
O=C(Nc1ccc(NC(=S)Nc2cccc(Br)c2)cc1)c1csnn1 | >10 µg/mL
O=C(Nc1ccc(NC(=S)Nc2ccc(Br)cc2)cc1)c1csnn1 | >10 µg/mL
O=C(Nc1ccc(NC(=S)NCCc2ccc(F)c(C(F)(F)F)c2)cc1)c1csnn1 | >10 µg/mL
O=C(Nc1ccc(NC(=S)Nc2cc(Br)cc(C(F)(F)F)c2)cc1)c1csnn1 | >10 µg/mL
O=C(Nc1ccc(NC(=S)Nc2ccc(Cl)c(C(F)(F)F)c2)cc1)c1cocn1 | >10 µg/mL
CCCN(CCC)CC(=O)Nc1ccc(NC(=S)Nc2ccc(NC(=O)c3ccco3)cc2)cc1Cl | 8 µg/mL
O=C(Nc1ccc(NC(=S)NCCc2ccccc2F)cc1)c1csnn1 | 10 µg/mL
